Target: MERTK (UniProt Q12866)
Sequence (Q12866 whole entry, looked up): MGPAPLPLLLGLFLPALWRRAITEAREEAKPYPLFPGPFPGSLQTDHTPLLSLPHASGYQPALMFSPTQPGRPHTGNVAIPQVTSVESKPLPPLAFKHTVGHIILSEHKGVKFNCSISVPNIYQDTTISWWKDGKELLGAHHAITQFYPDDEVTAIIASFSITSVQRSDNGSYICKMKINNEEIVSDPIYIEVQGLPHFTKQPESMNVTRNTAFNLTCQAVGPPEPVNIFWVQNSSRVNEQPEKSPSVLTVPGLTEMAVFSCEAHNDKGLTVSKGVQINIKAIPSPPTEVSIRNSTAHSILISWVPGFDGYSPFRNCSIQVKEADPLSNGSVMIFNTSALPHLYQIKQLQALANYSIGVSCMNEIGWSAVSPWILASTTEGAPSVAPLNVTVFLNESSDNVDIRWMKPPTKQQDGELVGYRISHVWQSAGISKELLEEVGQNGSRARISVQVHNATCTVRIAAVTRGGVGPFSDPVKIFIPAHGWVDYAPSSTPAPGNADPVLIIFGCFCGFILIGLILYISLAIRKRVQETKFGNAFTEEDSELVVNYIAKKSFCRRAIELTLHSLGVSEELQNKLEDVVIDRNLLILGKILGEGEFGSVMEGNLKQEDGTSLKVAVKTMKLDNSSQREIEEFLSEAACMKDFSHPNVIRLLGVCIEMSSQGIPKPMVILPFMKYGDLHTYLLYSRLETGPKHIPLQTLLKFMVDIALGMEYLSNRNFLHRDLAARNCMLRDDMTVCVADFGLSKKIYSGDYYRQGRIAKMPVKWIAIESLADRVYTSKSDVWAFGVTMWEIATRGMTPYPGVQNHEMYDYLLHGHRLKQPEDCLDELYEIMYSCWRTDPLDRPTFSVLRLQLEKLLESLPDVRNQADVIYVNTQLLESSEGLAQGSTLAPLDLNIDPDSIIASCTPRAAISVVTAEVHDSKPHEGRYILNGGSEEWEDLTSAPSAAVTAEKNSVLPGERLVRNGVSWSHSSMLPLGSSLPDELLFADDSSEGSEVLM
Test: phosphorylation enrichment, bacterial display (enrichment ratio); higher = better substrate or ligand; peptides without Tyr show the background
assayReadout: phosphorylation enrichment
Respond with the number and no other words.

Find the measured phosphorylation enrichment of CKPGFYNLKEK [LAMA1_Y490] with MERTK (UniProt Q12866) as test system.
0.378

---
Find the measured phosphorylation enrichment of KKLAEYGPQGK [CLCA1_Y147_R152K] with MERTK (UniProt Q12866) as test system.
0.273

Find the measured phosphorylation enrichment of FSAPNCCYRCG [PPP2CA_Y265_Y265C] with MERTK (UniProt Q12866) as test system.
0.505

Find the measured phosphorylation enrichment of GDEEDYFEIPG [EGFR_opt_F_2015] with MERTK (UniProt Q12866) as test system.
0.532

Find the measured phosphorylation enrichment of ALKKPYSVLFK [RPF2_Y59_G60S_YF] with MERTK (UniProt Q12866) as test system.
0.448

Find the measured phosphorylation enrichment of RSRSPYSPVLR [CDK13_Y399] with MERTK (UniProt Q12866) as test system.
0.674

Find the measured phosphorylation enrichment of NKFTTYLPRLP [C9orf24_Y126_YF] with MERTK (UniProt Q12866) as test system.
0.42

----------
Target: Fes (UniProt P07332)
Sequence (P07332 whole entry, looked up): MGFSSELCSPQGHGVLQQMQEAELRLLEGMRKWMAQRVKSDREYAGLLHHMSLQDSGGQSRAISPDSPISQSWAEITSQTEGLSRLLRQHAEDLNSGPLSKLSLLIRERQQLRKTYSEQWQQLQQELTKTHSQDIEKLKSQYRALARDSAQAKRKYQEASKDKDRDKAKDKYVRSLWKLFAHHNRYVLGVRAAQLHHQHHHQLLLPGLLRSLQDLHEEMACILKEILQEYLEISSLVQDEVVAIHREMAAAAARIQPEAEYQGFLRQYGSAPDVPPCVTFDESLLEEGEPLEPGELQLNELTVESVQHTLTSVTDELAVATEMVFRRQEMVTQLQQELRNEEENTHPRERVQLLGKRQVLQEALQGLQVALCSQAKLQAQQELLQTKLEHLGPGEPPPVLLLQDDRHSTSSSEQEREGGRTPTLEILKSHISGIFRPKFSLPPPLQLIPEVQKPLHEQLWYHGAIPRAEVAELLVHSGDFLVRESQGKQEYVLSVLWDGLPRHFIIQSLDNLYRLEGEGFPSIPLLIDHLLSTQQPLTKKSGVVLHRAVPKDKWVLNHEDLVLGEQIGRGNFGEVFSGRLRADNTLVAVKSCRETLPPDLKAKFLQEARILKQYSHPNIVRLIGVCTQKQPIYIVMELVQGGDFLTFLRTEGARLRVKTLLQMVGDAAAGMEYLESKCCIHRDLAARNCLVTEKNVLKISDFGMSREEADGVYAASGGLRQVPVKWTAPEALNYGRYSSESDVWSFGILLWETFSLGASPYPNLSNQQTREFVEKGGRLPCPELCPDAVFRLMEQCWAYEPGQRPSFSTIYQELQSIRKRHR
Experiment: phosphorylation enrichment, bacterial display (enrichment ratio); higher = better substrate or ligand; peptides without Tyr show the background
assayReadout: phosphorylation enrichment
Respond with the number and no other words.

State its phosphorylation enrichment: VEGISYDFIPT [CBS_Y308_G307S]
0.982

---
State its phosphorylation enrichment: YPQARYHWLVL [APTX_Y214_K211Q]
1.14

----------
Target: c-Src SH2;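 also: peptide library displayed on the E. coli surface as eCPX fusions, selected cells deep-sequenced, score is each peptide's frequency after selection divided by its frequency in the input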
Test: SH2 binding enrichment of the phosphorylated peptide, bacterial display (enrichment ratio); higher = better substrate or ligand; peptides without Tyr show the background
// reported SH2 binding enrichment for each item listed
Respond with the number and no other words.

Take a look at these entries with their results.
State its SH2 binding enrichment: RPASVYTKRCS [CPT2_Y508]
0.622

State its SH2 binding enrichment: QFKDKYLAKHN [CASK_Y712_YF]
0.914

Now look at this one.
State its SH2 binding enrichment: TFTVSYLPDMS [FLNC_Y1602_YF]
0.594

----------
Molecular target: Hck (UniProt P08631)
Sequence (P08631 whole entry, looked up): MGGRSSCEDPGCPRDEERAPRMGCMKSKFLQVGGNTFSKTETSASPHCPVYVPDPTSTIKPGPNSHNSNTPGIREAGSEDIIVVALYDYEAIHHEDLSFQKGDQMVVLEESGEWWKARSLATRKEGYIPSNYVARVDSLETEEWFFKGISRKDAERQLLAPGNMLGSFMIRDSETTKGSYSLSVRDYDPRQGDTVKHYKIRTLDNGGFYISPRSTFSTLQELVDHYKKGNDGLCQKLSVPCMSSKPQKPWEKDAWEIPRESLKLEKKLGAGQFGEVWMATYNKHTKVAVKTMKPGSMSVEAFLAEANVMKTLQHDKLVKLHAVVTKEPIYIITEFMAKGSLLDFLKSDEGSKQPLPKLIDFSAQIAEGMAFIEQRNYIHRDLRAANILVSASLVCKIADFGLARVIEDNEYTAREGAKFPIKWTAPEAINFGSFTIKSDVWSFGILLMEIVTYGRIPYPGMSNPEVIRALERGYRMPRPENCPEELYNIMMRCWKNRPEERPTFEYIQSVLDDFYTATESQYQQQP
Assay: phosphorylation enrichment, bacterial display (enrichment ratio); higher = better substrate or ligand; peptides without Tyr show the background
// reported phosphorylation enrichment for each item listed
Respond with the number and no other words.

Take a look at these entries with their results.
Find the measured phosphorylation enrichment of RRIHNYRGHLW [VHL_Y112_S111N] with Hck (UniProt P08631) as test system.
0.509

Find the measured phosphorylation enrichment of IVEYAYNDKAI [PUM3_Y259] with Hck (UniProt P08631) as test system.
0.539

Find the measured phosphorylation enrichment of RYVTRSIYNRE [HLA-DQB1_Y62_Y62S] with Hck (UniProt P08631) as test system.
0.682

Find the measured phosphorylation enrichment of EIPTQYEAMAS [GFAP_Y242_R239P] with Hck (UniProt P08631) as test system.
0.596

Find the measured phosphorylation enrichment of REENGYNTYAS [FGF10_Y161_I156R] with Hck (UniProt P08631) as test system.
1.3

Find the measured phosphorylation enrichment of SDQPDYDSVAS [GIT2_Y392_N387S] with Hck (UniProt P08631) as test system.
0.594

---
Find the measured phosphorylation enrichment of CGTPDYIDPEI [PRKCG_Y521_A523D] with Hck (UniProt P08631) as test system.
0.7

Find the measured phosphorylation enrichment of IRKKFYRAILE [CHD7_Y1218_Q1214R_YF] with Hck (UniProt P08631) as test system.
0.455
